Biological target: human beta-Klotho (human, UniProt Q86Z14 1-1044)
Assay: cell-based or functional assay
Outcome: TRUE for pERK-HEK293-Beta-klotho without HSA [EC50 (nM)] Median Value of at least 1 nM; FALSE for anything lower.

Previously resolved entries follow.
- Derivative 102: Analog 11 with modifying moiety III on the sulphur of Cys 71 (ligand, Cys 71: {2-[2-(2-{2-[2-(2-{2-[(S)-4-Carboxy-4-(17-carboxyheptadecanoylamino)butyrylamino]ethoxy}ethoxy)acetylamino]ethoxy}ethoxy)acetylamino]ethylcarbamoyl}methyl (modifying moiety III) on the sulphur atom) AHPIPDSSPLLQFGGQVRQRYLYTDDAQQTEAHLEIREDGTVGGAADQSPESLLQLKALKPGVIQILGVKTCRFLCQRPDGALYGSLHFDPEACSFRELLLEDGYNVYQSEAHGLPLHLPGQKSPHRDPAPRGPARFLPLPGLPPALPEPPGILAPQPPDVGSSDPFSLVGPSAVRSPSFAS: TRUE
- Derivative 18: Analog 2 with modifying moiety III on the sulphur of Cys 71 (ligand, Cys 71: {2-[2-(2-{2-[2-(2-{2-[(S)-4-Carboxy-4-(17-carboxyheptadecanoylamino)butyrylamino]ethoxy}ethoxy)acetylamino]ethoxy}ethoxy)acetylamino]ethylcarbamoyl}methyl (modifying moiety III) on the sulphur atom) AHPIPDSSPLLQFGGQVRQRYLYTDDAQQTEAHLEIREDGTVGGAADQSPESLLQLKALKPGVIQILGVKTCRFLCQRPDGALYGSLHFDPEACSFRELLLEDGYNVYQSEAHGLPLHLPGNKSPHRDPAPRGPARFLPLPGLPPALPEPPGILAPQPPDVGSSDPFGLVGPSQVRSPSFES: FALSE
- Derivative 31: Analog 7 with modifying moiety IV on the sulphur of Cys 71 (ligand, Cys 71: {2-[2-(2-{2-[2-(2-{2-[(S)-4-Carboxy-4-(19-carboxynonadecanoylamino)butyrylamino]ethoxy}ethoxy)acetylamino]ethoxy}ethoxy)acetylamino]ethylcarbamoyl}methyl (modifying moiety IV) on the sulphur atom) AHPIPDSSPLLQFGGQVRQRYLYTDDAQQTEAHLEIREDGTVGGAADQSPESLLQLKALKPGVIQILGVKTCRFLCQRPDGALYGSLHFDPEACSFRELLLEDGYNVYQSEAHGLPLHLPGQKSPHRDPAPRGPARFLPLPGLPPALPEPPGILAPQPPDVGSSDPFGLVGLEAVRSPSFE: TRUE

API: the following record is the query input.
Exercise: Quick check: does [-1A, S71C, N121Q, L166F, S167G, M168L, G174V, Y179F, A180E] FGF-21 (ligand) AHPIPDSSPLLQFGGQVRQRYLYTDDAQQTEAHLEIREDGTVGGAADQSPESLLQLKALKPGVIQILGVKTCRFLCQRPDGALYGSLHFDPEACSFRELLLEDGYNVYQSEAHGLPLHLPGQKSPHRDPAPRGPARFLPLPGLPPALPEPPGILAPQPPDVGSSDPFGLVGPSQVRSPSFES have pERK-HEK293-Beta-klotho without HSA [EC50 (nM)] Median Value greater than or equal to 1 nM?
Solution: FALSE
